The values you see were collected from paper PMC11842024.

TARGET_ENTITY: RET (Homo sapiens, UniProt P07949)
Sequence (P07949 29-1114): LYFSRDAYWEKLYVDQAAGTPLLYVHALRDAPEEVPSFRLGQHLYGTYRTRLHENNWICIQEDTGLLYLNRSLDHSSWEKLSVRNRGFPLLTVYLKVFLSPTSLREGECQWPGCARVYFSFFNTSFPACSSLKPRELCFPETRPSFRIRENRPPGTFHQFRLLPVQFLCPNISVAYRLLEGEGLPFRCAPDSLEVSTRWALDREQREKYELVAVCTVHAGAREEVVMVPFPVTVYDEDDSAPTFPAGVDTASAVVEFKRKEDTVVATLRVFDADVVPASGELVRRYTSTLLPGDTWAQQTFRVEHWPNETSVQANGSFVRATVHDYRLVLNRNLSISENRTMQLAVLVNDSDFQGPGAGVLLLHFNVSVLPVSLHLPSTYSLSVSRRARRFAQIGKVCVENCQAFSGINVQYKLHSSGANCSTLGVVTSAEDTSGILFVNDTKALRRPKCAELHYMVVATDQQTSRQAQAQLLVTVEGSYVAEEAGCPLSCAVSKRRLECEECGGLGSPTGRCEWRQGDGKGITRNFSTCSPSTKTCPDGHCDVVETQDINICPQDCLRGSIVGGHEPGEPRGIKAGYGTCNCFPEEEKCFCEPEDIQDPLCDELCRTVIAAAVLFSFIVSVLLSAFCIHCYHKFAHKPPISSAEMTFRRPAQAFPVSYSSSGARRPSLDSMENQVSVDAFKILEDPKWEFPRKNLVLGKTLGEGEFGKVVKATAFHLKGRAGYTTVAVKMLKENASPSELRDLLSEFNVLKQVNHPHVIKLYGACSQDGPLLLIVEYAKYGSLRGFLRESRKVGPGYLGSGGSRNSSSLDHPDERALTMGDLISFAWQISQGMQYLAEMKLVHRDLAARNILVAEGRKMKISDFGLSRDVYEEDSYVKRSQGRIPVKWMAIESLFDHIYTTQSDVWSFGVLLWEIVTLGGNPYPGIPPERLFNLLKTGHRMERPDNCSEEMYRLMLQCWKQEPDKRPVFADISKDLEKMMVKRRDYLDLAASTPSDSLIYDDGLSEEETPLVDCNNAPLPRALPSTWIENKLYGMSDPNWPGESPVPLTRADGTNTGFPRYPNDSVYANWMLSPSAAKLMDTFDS
METHOD: NanoBRET target engagement intracellular kinase assay
Assay type: cell-based
Design: host or cells: HEK293 (HEK293T cultured)
ASSAY_CONTEXT: HEK293 cells, 2 hours incubation
Quick reference for IC50 among some compounds
// note: answer is a bare numeric in nM

Answered examples (4):
Query :: Any idea what its IC50 is? The compound is CNC(=O)C1CCN(C2CCN(C(=O)c3ccc4[nH]nc(C#Cc5ccccc5-c5ccccc5)c4c3)C2)CC1 (centres unmarked) [CDD-2110]
Result :: 746

Query :: Any idea what its IC50 is? The compound is CN(C)[C@H]1CCN(C(=O)c2ccc3[nH]nc(C#Cc4ccccc4-c4ccccc4)c3c2)C1 [CDD-2212]
Result :: 1090

Query :: Any idea what its IC50 is? The compound is O=C(c1ccc2[nH]nc(C#Cc3ccccc3-c3ccccc3)c2c1)N1CC2(CCCNC2)C1 [CDD-2807]
Result :: 363

Query :: Any idea what its IC50 is? The compound is CN(C)[C@@H]1CCN(C(=O)c2ccc3[nH]nc(C#Cc4ccccc4-c4ccccc4)c3c2)C1 [CDD-2211]
Result :: 78

Note: attention shifts to another entry.
Query :: Any idea what its IC50 is? The compound is CNC(=O)CCC1CCN(C(=O)C2CCN(C3CCN(C(=O)c4ccc5[nH]nc(C#Cc6ccccc6-c6ccccc6)c5c4)C3)CC2)CC1 (centres unmarked) [CDD-3348]
Result :: 6410
